# Tested on: U2OS
# test: cell count relative to DMSO control (panel A, nuclei/RNA/PMG/mitochondria stain) (fraction of control); higher = more cells (less toxicity)
# appliedConditions: 10 µM; treatment time: 24 h
cell count overview

molecularString	testedTarget	cell count
CO[C@H]1C[C@@H]2CC[C@@H](C)[C@@](O)(O2)C(=O)C(=O)N2CCCC[C@H]2C(=O)O[C@H]([C@H](C)C[C@@H]2CC[C@@H](O)[C@H](OC)C2)CC(=O)[C@H](C)/C=C(\C)[C@@H](O)[C@@H](OC)C(=O)[C@H](C)C[C@H](C)/C=C/C=C/C=C/1C	U2OS	0.766

Param item = Cc1ccc(S(=O)(=O)c2ccc([N+](=O)[O-])o2)cc1 ; retrieve measured cell count.
0.886

Would you mind doing COC(=O)Nc1nc2ccc(C(=O)c3cccs3)cc2[nH]1 as well?
0.317

Quick one: Cc1c(N)nc([C@H](CC(N)=O)NC[C@H](N)C(N)=O)nc1C(=O)N[C@H](C(=O)N[C@H](C)[C@@H](O)[C@H](C)C(=O)N[C@H](C(=O)NCCc1nc(-c2nc(C(=O)NCCC[S+](C)C)cs2)cs1)[C@@H](C)O)[C@@H](O[C@@H]1O[C@@H](CO)[C@@H](O)[C@H](O)[C@@H]1O[C@H]1O[C@H](CO)[C@@H](O)[C@H](OC(N)=O)[C@@H]1O)c1c[nH]cn1
0.817

// repeat for NS(=O)(=O)C#Cc1ccccc1 and report
1.05

---

# Tested on: U2OS
# test: cell count relative to DMSO control (panel A, nuclei/RNA/PMG/mitochondria stain) (fraction of control); higher = more cells (less toxicity)
# appliedConditions: 10 µM; treatment time: 24 h
valueKind: cell count
Quick one: just the number, no unit, thanks!

These recorded examples may help you get a feel for the data.
compound	cell count
O=C(N/N=C/c1ccc(O)c(O)c1)c1cc2ccccc2cc1O [dynasore]	0.807
N#C[C@H](O[C@@H]1O[C@H](CO[C@@H]2O[C@H](CO)[C@@H](O)[C@H](O)[C@H]2O)[C@@H](O)[C@H](O)[C@H]1O)c1ccccc1 [amygdalin]	1.05

What does the record list as cell count for O=c1[nH]c(=O)n([C@H]2C[C@H](O)[C@@H](CO)O2)cc1F [floxuridine] ?
0.58

Now try OC(CS)C(O)CS (centres undefined) [DTT] .
0.201

And O=C(CCCCCCC(=O)Nc1ccccc1)NO [vorinostat] ?
0.899

Next up: CCCC[C@H]1C(=O)O[C@H](C)[C@H](NC(=O)c2cccc(NC=O)c2O)C(=O)O[C@@H](C)[C@@H]1OC(=O)CC(C)C [antimycin-a]
0.507

What about this compound? O=C(CCCN1CCC(O)(c2ccc(Cl)cc2)CC1)c1ccc(F)cc1 [haloperidol]
1

Also check COc1cc(NS(C)(=O)=O)ccc1Nc1c2ccccc2nc2ccccc12 [amsacrine]
0.359

Same again, this time with O=C(Oc1cc(S(=O)(=O)c2ccccc2)ccc1[N+](=O)[O-])c1ccc(Cl)cc1
0.944

---

# System: U2OS-mOrange2-Peroxisome
# test: cell count relative to DMSO control (panel B, lysosome/peroxisome/lipid stain) (fraction of control); higher = more cells (less toxicity)
# appliedConditions: 2.5 µM; treatment time: 24 h
Reported cell count values for the following compounds.

compound	experimentalValue
CC(C=CC(=O)NO)=C[C@@H](C)C(=O)c1ccc(N(C)C)cc1	0.585
Cc1c2oc3c(C)ccc(C(=O)N[C@@H]4C(=O)N[C@H](C(C)C)C(=O)N5CCC[C@H]5C(=O)N(C)CC(=O)N(C)[C@@H](C(C)C)C(=O)O[C@@H]4C)c3nc-2c(C(=O)N[C@@H]2C(=O)N[C@H](C(C)C)C(=O)N3CCC[C@H]3C(=O)N(C)CC(=O)N(C)[C@@H](C(C)C)C(=O)O[C@@H]2C)c(N)c1=O	0.743
CC(NC(=O)c1ccccc1/N=C/c1c(O)ccc2ccccc12)c1ccccc1 (centres undefined)	0.365

What value of cell count has been reported for the following compound? O=NN(CCCl)C(=O)NC1CCCCC1
0.952
